assay: Compound induced cellular toxicity in HepG2 cells (ATPlite 1Step, total ATP levels, day 3); type: cell-based; settings: human, three days, 0.5% DMSO, 50% reduction of total ATP levels relative to no drug controls
quantity_measured: CC50 at 3 days

1. CC(C)(C)[C@@H]1Cn2nc(-c3ccc(F)cc3)c(-c3ccc(F)cc3)c2-c2cc(O)c(C(=O)O)cc21; > 25 µM
2. CC(C)(C)[C@@H]1Cn2nc(-c3ccccc3)c(-c3ccccc3)c2-c2cc(O)c(C(=O)O)cc21; > 25 µM

For reference, reported CC50 at 3 days for CC(C)(C)[C@@H]1Cn2nc(-c3ccccc3F)c(-c3ccccc3F)c2-c2cc(O)c(C(=O)O)cc21 stands at > 25 µM

The origin of these recorded values is patent US20210292320A1.
